Data provenance: paper PMC5596342

biological target: the molecule itself; assay: FRET or BRET; spectrum-based periplasmic FRET (mNG donor, mCh acceptor, spectral unmixing, acceptor FRET efficiency EfA) in E. coli grown in Gb1 at 28°C, induced with 15 µM IPTG, fixed with 2.8% formaldehyde and 0.04% glutaraldehyde, measured in PBS in a spectrofluorimeter; where indicated cells treated with 2 µg/ml amdinocillin or 1 µg/ml aztreonam during induction; cut-off for interaction EfA above 1.4%
EfA (acceptor FRET efficiency) reference
Quick reminder: number only, in %, skip the unit.

{"Protein": "PBP5^S44G active-site mutant, fusions mNG-PBP5^S44G and mCh-PBP5^S44G (enzyme, Escherichia coli, UniProt P0AEB2 30-403, looked up, PBP5 (dacA) of Escherichia coli with the active-site change of Ser to Gly at position 44; One molecule for the two differently tagged copies; also called FP-PBP5^S44G; source: E. coli ΔdacA strain, expressed from plasmids pSAV057 and pTHV037, in the periplasm of fixed cells; not shown: mNeonGreen (donor copy) or mCherry (acceptor copy), N-terminal, kept) DDLNIKTMIPGVPQIDAESYILIDYNSGKVLAEQNADVRRDPAGLTKMMTSYVIGQAMKAGKFKETDLVTIGNDAWATGNPVFKGSSLMFLKPGMQVPVSQLIRGINLQSGNDACVAMADFAAGSQDAFVGLMNSYVNALGLKNTHFQTVHGLDADGQYSSARDMALIGQALIRDVPNEYSIYKEKEFTFNGIRQLNRNGLLWDNSLNVDGIKTGHTDKAGYNLVASATEGQMRLISAVMGGRTFKGREAESKKLLTWGFRFFETVNPLKVGKEFASEPVWFGDSDRASLGVDKDVYLTIPRGRMKDLKASYVLNSSELHAPLQKNQVVGTINFQLDGKTIEQRPLVVLQEIPEGNFFGKIIDYIKLMFHHWFG", "EfA (acceptor FRET efficiency) (%)": 5.4}

Let's switch to this protein now.
Quick check: EfA (acceptor FRET efficiency) of PBP6a^S66G active-site mutant, fusions mNG-PBP6a^S66G and mCh-PBP6a^S66G (enzyme, Escherichia coli, UniProt P08506 28-400, looked up, PBP6a (dacC) of Escherichia coli with the active-site serine 66 changed to glycine; One molecule for the two differently tagged copies; source: E. coli, expressed from plasmids pSAV057 and pTHV037, in the periplasm of fixed cells; not shown: mNeonGreen (donor copy) or mCherry (acceptor copy), N-terminal, kept) AEQTVEAPSVDARAWILMDYASGKVLAEGNADEKLDPAGLTKIMTSYVVGQALKADKIKLTDMVTVGKDAWATGNPALRGSSVMFLKPGDQVSVADLNKGVIIQSGNDACIALADYVAGSQESFIGLMNGYAKKLGLTNTTFQTVHGLDAPGQFSTARDMALLGKALIHDVPEEYAIHKEKEFTFNKIRQPNRNRLLWSSNLNVDGMKTGTTAGAGYNLVASATQGDMRLISVVLGAKTDRIRFNESEKLLTWGFRFFETVTPIKPDATFVTQRVWFGDKSEVNLGAGEAGSVTIPRGQLKNLKASYTLTEPQLTAPLKKGQVVGTIDFQLNGKSIEQRPLIVMENVEEGGFFGRVWDFVMMKFHQWFGSWFS ?
3.8
